Let's look at some compounds and their measured Kd.
target: F338A HuAChE (Homo sapiens, UniProt P22303, F369A); test: HuAChE inhibition kinetics; format: biochemical
Sequence (P22303 32-614 F369A): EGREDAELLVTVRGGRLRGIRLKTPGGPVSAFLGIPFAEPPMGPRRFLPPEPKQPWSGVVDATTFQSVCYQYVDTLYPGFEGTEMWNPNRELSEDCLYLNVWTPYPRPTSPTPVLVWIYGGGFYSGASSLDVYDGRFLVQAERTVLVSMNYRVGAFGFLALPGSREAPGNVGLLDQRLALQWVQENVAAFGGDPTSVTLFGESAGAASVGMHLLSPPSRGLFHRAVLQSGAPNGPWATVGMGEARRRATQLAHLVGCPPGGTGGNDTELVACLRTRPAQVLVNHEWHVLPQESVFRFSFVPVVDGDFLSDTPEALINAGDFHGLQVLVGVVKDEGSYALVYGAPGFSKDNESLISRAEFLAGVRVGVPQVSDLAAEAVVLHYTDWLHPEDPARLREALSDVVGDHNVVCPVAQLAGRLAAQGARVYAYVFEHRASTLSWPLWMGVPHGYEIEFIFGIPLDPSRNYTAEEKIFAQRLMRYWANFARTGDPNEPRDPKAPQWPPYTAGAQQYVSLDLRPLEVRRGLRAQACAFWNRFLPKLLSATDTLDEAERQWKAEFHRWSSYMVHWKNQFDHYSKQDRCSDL
measurementLabel: Kd (µM)

compound="CNC(=O)Oc1ccc2c(c1)[C@]1(C)CCO[C@@H]1N2C [(−)-Physovenine, physovenine]" endpointunit=µM reportedresult=2.56
compound="CN1CC[C@@]2(C)c3cc(OC(=O)Nc4ccccc4)ccc3N(C)[C@@H]12 [(−)-Phenserine, phenserine]" endpointunit=µM reportedresult=41.3

###

target: Y133A HuAChE (Homo sapiens, UniProt P22303, Y164A); assay: HuAChE inhibition kinetics; type: biochemical; conditions: read-out: Kd, Michaelis complex (Eq. 1); Y133A HuAChE; NI = No inhibition between […]10^−6- […]10^−4M
Sequence (P22303 32-614 Y164A): as the sequence (P22303 32-614 F369A) above, with Y133A, A338F counted along it
measurementLabel: Kd

molecule="CNC(=O)Oc1ccc2c(c1)[C@]1(C)CCO[C@@H]1N2C [(−)-Physovenine, physovenine]" measurementlabel=Kd reportedresult="> 250 µM"

###

target: D74N HuAChE (Homo sapiens, UniProt P22303, D105N); experiment: HuAChE inhibition kinetics; type: biochemical
Sequence (P22303 32-614 D105N): as the sequence (P22303 32-614 F369A) above, with D74N, A338F counted along it
measurementLabel: Kd (µM)

compound="CN1CC[C@@]2(C)c3cc(OC(=O)Nc4ccccc4)ccc3N(C)[C@@H]12 [(−)-Phenserine, phenserine]" measurementlabel=Kd endpointunit=µM reportedresult=3.4

###

target: E202Q HuAChE (Homo sapiens, UniProt P22303, E233Q); assay: HuAChE inhibition kinetics
measurementLabel: Kd (µM)

compound="CN1CC[C@@]2(C)c3cc(OC(=O)Nc4ccccc4)ccc3N(C)[C@@H]12 [(−)-Phenserine, phenserine]" testedtarget="E202Q HuAChE (Homo sapiens, UniProt P22303, E233Q)" measurementlabel=Kd reportedresult=17.4

###

molecular target: Wild Type HuAChE (Homo sapiens, UniProt P22303); assay: HuAChE inhibition kinetics; type: biochemical; conditions: read-out: Kd, noncovalent inhibition (competition with ATC); Wild Type HuAChE
Sequence (P22303 32-614): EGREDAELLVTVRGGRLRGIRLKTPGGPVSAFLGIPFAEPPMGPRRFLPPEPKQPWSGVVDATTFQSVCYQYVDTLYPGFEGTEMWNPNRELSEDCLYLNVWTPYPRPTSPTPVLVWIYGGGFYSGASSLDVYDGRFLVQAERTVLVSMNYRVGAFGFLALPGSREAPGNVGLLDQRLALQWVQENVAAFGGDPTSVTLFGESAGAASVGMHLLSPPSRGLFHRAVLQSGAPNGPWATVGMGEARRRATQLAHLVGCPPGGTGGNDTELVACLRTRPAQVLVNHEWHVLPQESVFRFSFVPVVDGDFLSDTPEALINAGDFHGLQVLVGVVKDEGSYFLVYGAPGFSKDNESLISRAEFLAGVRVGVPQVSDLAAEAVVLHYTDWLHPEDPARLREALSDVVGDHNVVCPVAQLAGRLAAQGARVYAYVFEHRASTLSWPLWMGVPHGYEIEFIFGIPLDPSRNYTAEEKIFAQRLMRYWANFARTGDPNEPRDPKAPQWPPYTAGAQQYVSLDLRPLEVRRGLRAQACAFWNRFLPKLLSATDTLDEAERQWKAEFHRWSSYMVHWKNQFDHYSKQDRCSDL
measurementLabel: Kd (nM)

molecule="CC(C)c1ccc(NC(=O)Oc2ccc3c(c2)C2(C)CCOC2N3C)cc1 (single isomer, unassigned; (-)) [(−)-Cymyl carbamate of physovenol, cymyl carbamate of physovenol]" reportedresult=710
molecule="CC(C)c1ccc(NC(=O)Oc2ccc3c(c2)C2(C)CCOC2N3C)cc1 (single isomer, unassigned; (+)) [(+)-Cymyl carbamate of physovenol, cymyl carbamate of physovenol]" reportedresult=1000

###

target: F338A HuAChE (Homo sapiens, UniProt P22303, F369A); experiment: HuAChE inhibition kinetics; type: biochemical; settings: read-out: Kd, noncovalent inhibition (competition with ATC); F338A HuAChE
pKd: −log10 of the molar value.
measurementLabel: pKd

molecule="CC(C)c1ccc(NC(=O)Oc2ccc3c(c2)C2(C)CCOC2N3C)cc1 (single isomer, unassigned; (-)) [(−)-Cymyl carbamate of physovenol, cymyl carbamate of physovenol]" reportedresult=4.40
molecule="CC(C)c1ccc(NC(=O)Oc2ccc3c(c2)C2(C)CCOC2N3C)cc1 (single isomer, unassigned; (+)) [(+)-Cymyl carbamate of physovenol, cymyl carbamate of physovenol]" reportedresult=4.24

###

biological target: UniProtKB P06276; assay: HuBChE inhibition kinetics; type: biochemical; conditions: HuBChE-Wild Type
measurementLabel: k2, carbamylation rate constant (min⁻¹)

compound="CNC(=O)Oc1ccc2c(c1)[C@]1(C)CCN(C)[C@@H]1N2C [(−)-Physostigmine, (−)physostigmine salicylate]" measurementlabel="k2, carbamylation rate constant" reportedresult=0.55
compound="CN1CC[C@@]2(C)c3cc(OC(=O)Nc4ccccc4)ccc3N(C)[C@@H]12 [(−)-Phenserine, phenserine]" measurementlabel="k2, carbamylation rate constant" reportedresult=0.6
compound="CN(C)C(=O)Oc1ccc[n+](C)c1 [Pyridostigmine, pyridostigmine bromide]" measurementlabel="k2, carbamylation rate constant" reportedresult=0.30
compound="CCN(C)C(=O)Oc1cccc([C@H](C)N(C)C)c1 [Rivastigmine, rivastigmine]" measurementlabel="k2, carbamylation rate constant" reportedresult=0.90

###

target: W86F HuAChE (Homo sapiens, UniProt P22303, W117F); experiment: HuAChE inhibition kinetics
pKd: −log10 of the molar value.
measurementLabel: pKd

compound="CN1CC[C@@]2(C)c3cc(OC(=O)Nc4ccccc4)ccc3N(C)[C@@H]12 [(−)-Phenserine, phenserine]" reportedresult=6.06

###

target: F295L/F297V HuAChE (Homo sapiens, UniProt P22303, F326L/F328V); assay: HuAChE inhibition kinetics
pKd: −log10 of the molar value.
measurementLabel: pKd

compound="CN1CC[C@@]2(C)c3cc(OC(=O)Nc4ccccc4)ccc3N(C)[C@@H]12 [(−)-Phenserine, phenserine]" testedtarget="F295L/F297V HuAChE (Homo sapiens, UniProt P22303, F326L/F328V)" measurementlabel=pKd reportedresult=6.10

###

target: W86A/Y337A HuAChE (Homo sapiens, UniProt P22303, W117A/Y368A); experiment: biochemical; type: biochemical
Sequence (P22303 32-614 W117A/Y368A): as the sequence (P22303 32-614 F369A) above, with W86A, Y337A, A338F counted along it
measurementLabel: Kd (µM)

compound="CNC(=O)Oc1ccc2c(c1)[C@]1(C)CCO[C@@H]1N2C [(−)-Physovenine, physovenine]" endpointunit=µM reportedresult=413

###

biological target: Y133F HuAChE (Homo sapiens, UniProt P22303, Y164F); experiment: HuAChE inhibition kinetics
Sequence (P22303 32-614 Y164F): as the sequence (P22303 32-614 F369A) above, with Y133F, A338F counted along it
measurementLabel: Kd (µM)

compound="CN1CC[C@@]2(C)c3cc(OC(=O)Nc4ccccc4)ccc3N(C)[C@@H]12 [(−)-Phenserine, phenserine]" endpointunit=µM reportedresult=7.6

###

molecular target: W286A HuAChE (Homo sapiens, UniProt P22303, W317A); experiment: HuAChE inhibition kinetics; assay type: biochemical
Sequence (P22303 32-614 W317A): as the sequence (P22303 32-614 F369A) above, with W286A, A338F counted along it
measurementLabel: Kd (nM)

compound="CN1CC[C@@]2(C)c3cc(OC(=O)Nc4ccccc4)ccc3N(C)[C@@H]12 [(−)-Phenserine, phenserine]" endpointunit=nM reportedresult=160

###

molecular target: F295L/F297V/Y337A HuAChE (Homo sapiens, UniProt P22303, F326L/F328V/Y368A); assay: HuAChE inhibition kinetics
Sequence (P22303 32-614 F326L/F328V/Y368A): as the sequence (P22303 32-614 F369A) above, with F295L, F297V, Y337A, A338F counted along it
pKd: −log10 of the molar value.
measurementLabel: pKd

compound="CN1CC[C@@]2(C)c3cc(OC(=O)Nc4ccccc4)ccc3N(C)[C@@H]12 [(−)-Phenserine, phenserine]" measurementlabel=pKd reportedresult=6.52

###

target: F295A/F338A/V407F HuAChE (Homo sapiens, UniProt P22303, F326A/F369A/V438F); assay: HuAChE inhibition kinetics
pKd: −log10 of the molar value.
measurementLabel: pKd

molecule="CN1CC[C@@]2(C)c3cc(OC(=O)Nc4ccccc4)ccc3N(C)[C@@H]12 [(−)-Phenserine, phenserine]" reportedresult=4.57

###

target: F297A HuAChE (Homo sapiens, UniProt P22303, F328A); experiment: HuAChE inhibition kinetics; type: biochemical
Sequence (P22303 32-614 F328A): as the sequence (P22303 32-614 F369A) above, with F297A, A338F counted along it
measurementLabel: Kd (nM)

compound="CNC(=O)Oc1ccc2c(c1)[C@]1(C)CCO[C@@H]1N2C [(−)-Physovenine, physovenine]" testedtarget="F297A HuAChE (Homo sapiens, UniProt P22303, F328A)" reportedresult=630

###

target: F295A HuAChE (Homo sapiens, UniProt P22303, F326A); experiment: HuAChE inhibition kinetics; assay type: biochemical
pKd: −log10 of the molar value.
Each entry below carries its reported pKd.
measurementLabel: pKd

compound="CNC(=O)Oc1ccc2c(c1)[C@]1(C)CCO[C@@H]1N2C [(−)-Physovenine, physovenine]" measurementlabel=pKd reportedresult=7.00
compound="CN1CC[C@@]2(C)c3cc(OC(=O)Nc4ccccc4)ccc3N(C)[C@@H]12 [(−)-Phenserine, phenserine]" measurementlabel=pKd reportedresult=7.05

###

target: HuBChE-Wild Type (Homo sapiens)
Sequence (P06276 29-602): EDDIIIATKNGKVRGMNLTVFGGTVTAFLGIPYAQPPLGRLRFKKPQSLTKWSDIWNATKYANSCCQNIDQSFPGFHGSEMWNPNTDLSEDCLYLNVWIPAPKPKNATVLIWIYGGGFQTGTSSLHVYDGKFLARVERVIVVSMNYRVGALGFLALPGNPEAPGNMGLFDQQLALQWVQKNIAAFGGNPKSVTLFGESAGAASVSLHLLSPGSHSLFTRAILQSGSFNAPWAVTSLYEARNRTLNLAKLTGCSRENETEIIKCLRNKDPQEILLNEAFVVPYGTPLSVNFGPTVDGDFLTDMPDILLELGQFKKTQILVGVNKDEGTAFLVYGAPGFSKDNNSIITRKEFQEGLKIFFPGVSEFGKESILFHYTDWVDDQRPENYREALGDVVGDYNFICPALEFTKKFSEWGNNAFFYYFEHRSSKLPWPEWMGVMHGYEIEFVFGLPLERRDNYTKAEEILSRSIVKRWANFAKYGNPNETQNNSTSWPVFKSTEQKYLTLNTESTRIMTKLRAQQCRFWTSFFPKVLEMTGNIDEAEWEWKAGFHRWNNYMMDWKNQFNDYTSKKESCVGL
pKd: −log10 of the molar value.
measurementLabel: pKd

compound="CN1CC[C@@]2(C)c3cc(OC(=O)Nc4ccccc4)ccc3N(C)[C@@H]12 [(−)-Phenserine, phenserine]" reportedresult=5.05

###

biological target: E202A HuAChE (Homo sapiens, UniProt P22303, E233A); test: HuAChE inhibition kinetics
measurementLabel: Kd (µM)

compound="CN1CC[C@@]2(C)c3cc(OC(=O)Nc4ccccc4)ccc3N(C)[C@@H]12 [(−)-Phenserine, phenserine]" reportedresult=9.1

###

molecular target: Y133A HuAChE (Homo sapiens, UniProt P22303, Y164A); assay: HuAChE inhibition kinetics; assay type: biochemical
measurementLabel: Kd (µM)

compound="CN1CC[C@@]2(C)c3cc(OC(=O)Nc4ccccc4)ccc3N(C)[C@@H]12 [(−)-Phenserine, phenserine]" measurementlabel=Kd endpointunit=µM reportedresult=76

###

Some compounds, each annotated with its measured pKd.
molecular target: Wild Type HuAChE (Homo sapiens); assay: HuAChE inhibition kinetics; type: biochemical
pKd: −log10 of the molar value.
measurementLabel: pKd

compound="CN1CC[C@@]2(C)c3cc(OC(=O)Nc4ccccc4)ccc3N(C)[C@@H]12 [(−)-Phenserine, phenserine]" reportedresult=5.86
compound="CNC(=O)Oc1ccc2c(c1)[C@]1(C)CCO[C@@H]1N2C [(−)-Physovenine, physovenine]" reportedresult=6.37
